molecular target: human chemokine receptor CXCR7 (Homo sapiens (Human)); assay: Tango CXCR7-bla U2OS beta-arrestin recruitment assay (beta-lactamase reporter, FRET), antagonism of CXCL12/SDF1-α; type: cell-based; conditions: antagonistic effect on CXCR7; Tango CXCR7-bla U2OS cells, CXCL12/SDF1-α at its EC80
Sequence (P25106 whole entry): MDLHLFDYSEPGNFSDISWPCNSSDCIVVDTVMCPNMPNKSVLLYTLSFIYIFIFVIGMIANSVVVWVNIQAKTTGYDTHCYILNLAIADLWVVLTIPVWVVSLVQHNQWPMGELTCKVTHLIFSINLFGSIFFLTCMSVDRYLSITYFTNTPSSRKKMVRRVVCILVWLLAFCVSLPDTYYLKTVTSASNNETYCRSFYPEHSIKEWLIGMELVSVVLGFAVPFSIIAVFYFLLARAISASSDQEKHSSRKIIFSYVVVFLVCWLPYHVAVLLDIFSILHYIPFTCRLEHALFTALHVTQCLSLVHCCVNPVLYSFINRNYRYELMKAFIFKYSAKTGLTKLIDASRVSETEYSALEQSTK
Parameter class (string): assigned from measured IC50. Ranges: lower band = under 60 nM, central band = from 60 nM up to 300 nM, upper band = 300 nM and over

Illustrative cases are given below, each with its answer.
C[C@@H](NC(=O)[C@@H]1CN(C2CCCC2)CC[C@H]1NC(=O)c1cn(-c2ccc(F)cc2F)nn1)C1CCC1 (relative stereo) : upper band
CC[C@@H]1CCC[C@H]1N1CC[C@@H](NC(=O)c2cc(-c3ccc(F)cc3F)on2)[C@H](C(=O)N(C)C)C1 : lower band
O=C(N[C@H]1CCN(C2CCCC2)C[C@@H]1C(=O)NC1(C2CC2)CC1)c1cc(-c2ccc(F)cc2F)on1 : central band

Q. Field: class (IC50) — entry: Cc1cccc([C@@H](C)NC(=O)[C@@H]2CN(C3CCCCC3)CC[C@H]2NC(=O)c2cc(-c3ccc(F)cc3F)on2)n1 (single isomer, unassigned) [Example 1.188b]
A. upper band

Q. Form field 'band' for `CCN1CC[C@H](NC(=O)c2cc(-c3ccc(F)cc3F)on2)[C@@H](C(=O)N[C@H](C)c2cccc(C)n2)C1`
A. lower band

Q. Exam item: assign O=C(N[C@@H]1CCN(CC2CC2)C[C@H]1C(=O)NC1(c2ccccn2)CC1)c1cc(-c2c(F)cc(F)cc2F)on1 (racemic) [Example 1.171] to the correct category.
A. lower band

Q. Which category fits this record: CN(C)C(=O)[C@@H]1CN(C2CCCCC2)CC[C@H]1NC(=O)c1cn(-c2ccc(F)cc2F)nn1 (racemic) [Example 1.095]
A. central band

Q. Assign a category based on measured IC50 for C[C@@H](NC(=O)[C@@H]1CN(CC2CC2)CC[C@H]1NC(=O)c1cc(-c2c(F)cc(F)cc2F)on1)C1CCC1 (relative stereo) [Example 1.139] and give only the class name.
A. lower band

Q. Returns: class label. Input: `CN(C)C(=O)[C@@H]1CN(C2CC(C)(C)C2)CC[C@H]1NC(=O)c1cc(-c2ccc(F)cc2F)on1`
A. upper band

Q. Sort into band: C[C@@H](NC(=O)[C@H]1CN(C2CCC2)CC[C@@H]1NC(=O)c1cc(-c2ccc(F)cc2F)on1)c1ncccn1 [Example 4.084b]
A. central band

---

target: UniProt:P25106; test: Tango CXCR7-bla U2OS beta-arrestin recruitment assay (beta-lactamase reporter, FRET), antagonism of CXCL12/SDF1-α; type: cell-based; conditions: antagonistic effect on CXCR7; Tango CXCR7-bla U2OS cells, CXCL12/SDF1-α at its EC80;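 further: compounds preincubated 15 min before CXCL12 addition, then 22 h at 37 °C, FRET emission ratio read with CCF4-AM substrate after 2 h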
OUTCOME MEASURE: pIC50
// pIC50: -log10(molar conc.)

Please review the entries below; each comes with its answer.
Cc1nnc(C(C)NC(=O)[C@@H]2CN(C3CCCCC3)CC[C@H]2NC(=O)c2cc(-c3ccc(F)cc3F)on2)o1 (relative stereo) : 6.57
O=C(N[C@@H]1CCN(C2CCCCC2)C[C@H]1C(=O)NC1(c2ccccn2)CC1)c1cn(-c2ccc(F)cc2F)nn1 (single isomer, unassigned) [Example 1.165a] : 7.37

With those in mind, consider the next compound.
Q. Entry `Cn1cc(C(C)(C)NC(=O)[C@H]2CN(C3CCCC3)CC[C@@H]2NC(=O)c2cc(-c3ccc(F)cc3F)on2)cn1` : reported pIC50 = ?
A. 6.59

Values compiled from patent US11306078B2.
